test system: DeltatarO mutant; test: S. aureus survival, RN4220 and DeltatarO strains – OD600, teichoic acid synthesis inhibitors, primary screen (AID 463173); details: S. aureus RN4220 wild type/DeltatarO growth, OD600, 18 h, stronger effect = lower value, screened at 18.75 µg/mL (by protocol)
Out of some 52,000 compounds screened, about 4,300 (8.3%) were called active. Shown is part of a subset that was picked to be rich in actives.
parameter-measured: survival (%)
Answers are plain numbers, in %.

Some solved entries appear below for comparison.
COc1ccc(OCC2CNC(=O)O2)cc1 (stereo unspecified) | 61
CCOc1cccc(NC(=O)c2ccc(F)c(S(=O)(=O)N(CC)c3cccc(C)c3)c2)c1 | 86
COc1cc(C2c3c(-c4ccc(C)cc4)n[nH]c3C(=O)N2c2ccc(F)cc2)ccc1O (stereo unspecified) | 95
Cc1ccc2nc(NC(=O)CSc3[nH]c(=O)ncc3C)sc2c1 | 102
Cc1ccc(N2C(=O)c3n[nH]c(C)c3C2c2ccc(C(C)C)cc2)cc1 (stereo unspecified) | 39

Report survival for each item below.
1. Cc1ccc(-c2n[nH]c3c2C(c2cccs2)N(c2ccc(Cl)cc2)C3=O)cc1 (stereo unspecified)
2. COc1ccc(C(=O)Nc2ccccc2C(=O)OCc2cc(=O)n3c4c(sc3n2)CCCC4)cc1
3. Cc1ccc(N2C(=O)c3n[nH]c(C)c3C2c2ccccc2Cl)cc1 (stereo unspecified)
4. Cc1ccc(C(=O)Nc2cccc(C(=O)O)c2)cc1S(=O)(=O)N1CCCC1

Resp:
1: 62; 2: 72; 3: 120; 4: 81

These entries and their values trace back to PubChem BioAssay AID463173.
